Assay: Selectivity index, ratio of IC50 for human GES-1 cells to IC50 for human HGC27 cells
Format: toxicity
Details: GES-1 cells and HGC27 cells, read-out: Ratio IC50
endpoint: selectivity ratio
Give bare numbers.

Query: Find the measured selectivity ratio of Cc1ccc(Sc2nc(SCc3ccccc3)nc3sc(Nc4ccccc4)nc23)cc1 and report it.
Reply: 24.1

* * *

Task for the reader: assign each of the following compounds its reported pIC50.
Test system: MCF7
Assay: Antiproliferative activity against human MCF7 cells after 72 hrs by MTT assay
Assay type: functional, cell-based
Details: MCF7, 72 h
Give bare numbers, as −log10 of the molar value.

Worked cases, answers included:
• CCCSc1nc(Sc2nncs2)c2nc(Nc3ccccc3)sc2n1 = 5.07
• CCCSc1nc(Sc2nncs2)c2nc(Nc3ccccn3)sc2n1 = 4.94
• O=c1[nH]cc(F)c(=O)[nH]1 = 5.14

Value sought for every listed compound: pIC50.
1. CCCSc1nc(Sc2ccc(C)cc2)c2nc(Nc3ccccn3)sc2n1
2. CCCSc1nc(Sc2nnnn2CCN(C)C)c2nc(Nc3ccccc3)sc2n1
3. CCCSc1nc(Sc2ccc(Cl)cc2)c2nc(Nc3ccccc3)sc2n1
4. CCCSc1nc(Sc2ncccn2)c2nc(Nc3ccccc3)sc2n1
5. c1ccc(CSc2nc(Sc3nncs3)c3nc(Nc4ccccc4)sc3n2)cc1
6. Cc1ccc(Sc2nc(SCc3ccccc3)nc3sc(Nc4ccccc4)nc23)cc1

Reply:
1: 4.47; 2: 4.84; 3: 4.35; 4: 4.88; 5: 4.41; 6: 5.07

* * *

Task for the reader: assign each of the following molecules its reported pIC50.
Tested on: MGC-803
Test: Antiproliferative activity against human MGC803 cells after 72 hrs by MTT assay
Type: functional, cell-based
Settings: MGC-803, 72 h
Give bare numbers, as −log10 of the molar value.

Worked cases, answers included:
- CCCSc1nc(Sc2ccc(C)cc2)c2nc(Nc3cccc4ccccc34)sc2n1: 4.34
- CCCSc1nc(Sc2nnnn2CCN(C)C)c2nc(Nc3ccccc3)sc2n1: 4.73
- CCCSc1nc(Sc2nccn2C)c2nc(Nc3ccccc3)sc2n1: 4.52

Value sought for every listed molecule: pIC50.
1. CCCSc1nc(Sc2nc3ccccc3s2)c2nc(Nc3ccccc3)sc2n1
2. CCCSc1nc(Sc2nncs2)c2nc(Nc3ccccn3)sc2n1
3. CCCSc1nc(Sc2nncs2)c2nc(Nc3ccccc3)sc2n1
4. CCCSc1nc(Sc2nnc(N)s2)c2nc(Nc3ccccc3)sc2n1
5. CCCSc1nc(Sc2ncccn2)c2nc(Nc3ccccc3)sc2n1
6. CCCSc1nc(Sc2nccs2)c2nc(Nc3ccccc3)sc2n1

Reply:
1. 4.85
2. 4.99
3. 4.97
4. 4.89
5. 5.01
6. 4.63

* * *

Test system: MGC-803
Assay: Antiproliferative activity against human MGC803 cells after 72 hrs by MTT assay
Format: functional, cell-based
Settings: MGC-803, 72 h
endpoint: IC50 (µM)
Give bare numbers, in µM.

Worked cases, answers included:
* Cc1ccc(Sc2nc(SCc3ccccc3)nc3sc(Nc4ccccc4)nc23)cc1 | 12.2
* CCCSc1nc(Sc2ccc(Cl)cc2)c2nc(Nc3ccccc3)sc2n1 | 9.33
* CCCSc1nc(Sc2ccc(C)cc2)c2nc(Nc3ccccc3)sc2n1 | 4.73

Now, please, on to the next compound.
Query: Find the measured IC50 of CCCSc1nc(Sc2ncccn2)c2nc(Nc3ccccn3)sc2n1 and report it.
Reply: 11.2
